test system: UO-31 renal; test: NCI tumour cell line growth inhibition, 48 h
REPORTED PROPERTY: TGI

> print(dat)
                                   compound  target.under.test  experimental.result
1  Nc1nc2c(c(=O)[nH]1)N(C=O)C(CNc1ccc(C(=O)N[C@@H](CCC(=O)O)C(=O)O)cc1)CN2 (stereo partly drawn)        UO-31 renal             > 125 µM
2  O=C(N=C1SCCN1C(=O)C(C(F)(F)F)C(F)(F)F)C(C(F)(F)F)C(F)(F)F        UO-31 renal             > 100 µM
3          COc1cccc(C(=O)N2CCc3ccccc32)c1OC        UO-31 renal             > 100 µM

// data source = PubChem BioAssay (NCI)
